# Target Desc: UniProt Q9Y5Y9
# Sequence (Q9Y5Y9 whole entry, species assumed): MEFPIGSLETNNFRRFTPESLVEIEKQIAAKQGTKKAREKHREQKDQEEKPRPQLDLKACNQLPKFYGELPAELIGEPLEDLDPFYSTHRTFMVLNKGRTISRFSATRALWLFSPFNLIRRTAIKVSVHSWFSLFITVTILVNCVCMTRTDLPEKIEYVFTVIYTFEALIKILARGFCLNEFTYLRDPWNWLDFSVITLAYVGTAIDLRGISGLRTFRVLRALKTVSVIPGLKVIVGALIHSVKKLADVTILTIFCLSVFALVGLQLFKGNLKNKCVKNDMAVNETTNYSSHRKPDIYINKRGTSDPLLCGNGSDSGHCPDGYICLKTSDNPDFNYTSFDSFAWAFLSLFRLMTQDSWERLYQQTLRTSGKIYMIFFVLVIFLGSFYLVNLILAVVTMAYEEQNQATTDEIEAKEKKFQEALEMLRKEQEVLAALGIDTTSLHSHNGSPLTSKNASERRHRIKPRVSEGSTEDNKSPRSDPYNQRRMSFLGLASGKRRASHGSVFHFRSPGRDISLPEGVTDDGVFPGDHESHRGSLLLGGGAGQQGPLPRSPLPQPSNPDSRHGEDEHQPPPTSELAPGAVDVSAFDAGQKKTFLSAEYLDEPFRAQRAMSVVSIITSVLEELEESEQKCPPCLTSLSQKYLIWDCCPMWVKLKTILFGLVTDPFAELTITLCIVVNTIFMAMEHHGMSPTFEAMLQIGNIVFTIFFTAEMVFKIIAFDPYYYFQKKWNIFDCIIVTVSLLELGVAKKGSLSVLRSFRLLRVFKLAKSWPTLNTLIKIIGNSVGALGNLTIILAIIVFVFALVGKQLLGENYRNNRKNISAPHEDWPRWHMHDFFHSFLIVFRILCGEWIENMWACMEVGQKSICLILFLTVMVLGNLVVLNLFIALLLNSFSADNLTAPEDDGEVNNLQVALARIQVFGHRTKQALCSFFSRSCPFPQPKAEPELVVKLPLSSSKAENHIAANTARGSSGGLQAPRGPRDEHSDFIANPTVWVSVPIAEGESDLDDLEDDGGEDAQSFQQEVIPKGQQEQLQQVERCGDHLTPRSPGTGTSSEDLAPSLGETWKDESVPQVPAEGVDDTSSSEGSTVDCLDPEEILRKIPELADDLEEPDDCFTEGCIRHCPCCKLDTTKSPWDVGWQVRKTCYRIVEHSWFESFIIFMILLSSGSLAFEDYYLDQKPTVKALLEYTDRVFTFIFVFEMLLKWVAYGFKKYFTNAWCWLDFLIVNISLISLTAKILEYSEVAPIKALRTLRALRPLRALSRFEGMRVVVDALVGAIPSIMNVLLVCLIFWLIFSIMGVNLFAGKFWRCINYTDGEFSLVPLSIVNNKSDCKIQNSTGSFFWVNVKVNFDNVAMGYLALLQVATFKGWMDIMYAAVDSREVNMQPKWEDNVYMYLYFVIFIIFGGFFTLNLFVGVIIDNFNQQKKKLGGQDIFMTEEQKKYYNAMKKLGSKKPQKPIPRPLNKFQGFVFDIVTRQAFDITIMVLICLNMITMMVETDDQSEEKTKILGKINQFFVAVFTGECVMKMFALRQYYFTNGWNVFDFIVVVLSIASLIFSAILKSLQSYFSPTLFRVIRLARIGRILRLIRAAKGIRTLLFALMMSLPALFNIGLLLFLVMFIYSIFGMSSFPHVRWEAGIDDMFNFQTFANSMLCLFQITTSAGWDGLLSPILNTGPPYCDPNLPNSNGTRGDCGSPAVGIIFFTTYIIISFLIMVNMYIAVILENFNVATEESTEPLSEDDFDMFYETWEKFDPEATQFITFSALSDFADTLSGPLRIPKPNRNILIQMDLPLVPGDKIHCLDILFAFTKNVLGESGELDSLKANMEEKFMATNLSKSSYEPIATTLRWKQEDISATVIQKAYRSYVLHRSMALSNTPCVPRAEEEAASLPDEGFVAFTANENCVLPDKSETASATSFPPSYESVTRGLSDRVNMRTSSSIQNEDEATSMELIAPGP
# Experiment Summary: 14C Guanidinium Ion Influx Binding Assay (flux assay)
# Protocol Conditions: activity towards PN3, PN3 stably expressed in a host cell line, deltamethrine 10 μM
Measured Property: IC50

Worked examples follow.
{"Chemical String": "O=C(NCc1ccc(C(F)(F)F)cc1)c1cnn(-c2ccccc2)c1C(F)(F)F", "Value": "4.1 to 10 µM"}
{"Chemical String": "O=C(NCCc1ccc(F)cc1)c1cnn(-c2ccc(Cl)cc2)c1C(F)(F)F", "Value": "0.1 to 4 µM"}

Continue with the next molecule.
For the molecule O=C(Nc1ccncc1)c1cnn(-c2ccc(Cl)cc2)c1C(F)(F)F , what IC50 is on record?
4.1 to 10 µM
